biological target: Dyrk2 (Homo sapiens); construct: made in house; host or cells: Escherichia coli BL21(DE3) with pRARE; plasmid pGEX-2TK-Dyrk2 (gift from W. Becker, Aachen); test: Dyrk2 kinase assay (32P-ATP, Woodtide); format: biochemical; conditions: at 5 µM; read-out: percentage of inhibition Dyrk2
Sequence (Q92630 whole entry): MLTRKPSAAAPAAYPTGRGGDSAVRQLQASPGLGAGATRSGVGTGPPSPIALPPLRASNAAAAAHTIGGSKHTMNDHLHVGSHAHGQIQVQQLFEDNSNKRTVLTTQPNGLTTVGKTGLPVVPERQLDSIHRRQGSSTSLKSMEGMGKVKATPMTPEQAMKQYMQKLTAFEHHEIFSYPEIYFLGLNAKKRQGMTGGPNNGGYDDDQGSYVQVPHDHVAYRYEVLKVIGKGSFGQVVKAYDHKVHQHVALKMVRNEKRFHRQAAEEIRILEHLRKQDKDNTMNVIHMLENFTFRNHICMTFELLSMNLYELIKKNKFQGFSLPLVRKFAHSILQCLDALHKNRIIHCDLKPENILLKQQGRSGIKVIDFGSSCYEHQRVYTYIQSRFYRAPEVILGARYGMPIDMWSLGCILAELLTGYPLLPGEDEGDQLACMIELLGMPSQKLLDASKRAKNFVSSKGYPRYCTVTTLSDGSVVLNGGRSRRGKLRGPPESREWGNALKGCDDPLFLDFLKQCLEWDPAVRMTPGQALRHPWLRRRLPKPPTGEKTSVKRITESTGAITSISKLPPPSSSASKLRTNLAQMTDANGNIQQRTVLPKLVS
Classify as follows. Reported inhibition at 5 µM greater than or equal to 30%: class 1. Reported inhibition at 5 µM below: class 0.

Solved cases below.
[
  {
    "RECORD_SMILES": "CSc1ncc(-c2csc(-c3cnco3)c2)cn1",
    "SUBJECT_OF_TEST": "Dyrk2 (Homo sapiens)",
    "ASSIGNED_CATEGORY": "class 0"
  },
  {
    "RECORD_SMILES": "c1cncc(-c2cc(-c3cncs3)cs2)c1",
    "SUBJECT_OF_TEST": "Dyrk2 (Homo sapiens)",
    "ASSIGNED_CATEGORY": "class 1"
  },
  {
    "RECORD_SMILES": "Clc1cncc(-c2csc(-c3cncnc3)c2)c1",
    "SUBJECT_OF_TEST": "Dyrk2 (Homo sapiens)",
    "ASSIGNED_CATEGORY": "class 0"
  },
  {
    "RECORD_SMILES": "c1cncc(-c2csc(-c3cncs3)c2)c1",
    "SUBJECT_OF_TEST": "Dyrk2 (Homo sapiens)",
    "ASSIGNED_CATEGORY": "class 1"
  },
  {
    "RECORD_SMILES": "c1cncc(-c2cc(-c3ccc4c(c3)CCO4)cs2)c1",
    "SUBJECT_OF_TEST": "Dyrk2 (Homo sapiens)",
    "ASSIGNED_CATEGORY": "class 1"
  },
  {
    "RECORD_SMILES": "Cn1cc(-c2csc(-c3cccnc3)c2)cn1",
    "SUBJECT_OF_TEST": "Dyrk2 (Homo sapiens)",
    "ASSIGNED_CATEGORY": "class 1"
  }
]

Would you say c1cncc(-c2csc(-c3cncnc3)c2)c1 shows inhibition at 5 µM at minimum 30%?
class 1

Would you say N#Cc1cncc(-c2csc(-c3cccnc3)c2)c1 shows inhibition at 5 µM at minimum 30%?
class 1

Would you say CSc1ncc(-c2csc(-c3cncnc3)c2)cn1 shows inhibition at 5 µM at minimum 30%?
class 0

Would you say c1cncc(-c2csc(-c3cnco3)c2)c1 shows inhibition at 5 µM at minimum 30%?
class 1

Would you say c1ccc2c(-c3csc(-c4cncnc4)c3)cncc2c1 shows inhibition at 5 µM at minimum 30%?
class 0

Would you say c1ccc2c(-c3csc(-c4cnco4)c3)cncc2c1 shows inhibition at 5 µM at minimum 30%?
class 0

Would you say Cn1ccc(-c2csc(-c3cccnc3)c2)cc1=O shows inhibition at 5 µM at minimum 30%?
class 0

Would you say Clc1cncc(-c2csc(-c3cnco3)c2)c1 shows inhibition at 5 µM at minimum 30%?
class 0

Would you say c1cncc(-c2cc(-c3ccncc3)cs2)c1 shows inhibition at 5 µM at minimum 30%?
class 0

Would you say c1ncc(-c2csc(-c3cnco3)c2)cn1 shows inhibition at 5 µM at minimum 30%?
class 0

Would you say Cc1cc(-c2csc(-c3cccnc3)c2)ccn1 shows inhibition at 5 µM at minimum 30%?
class 1

Would you say c1ncc(-c2csc(-c3cncnc3)c2)cn1 shows inhibition at 5 µM at minimum 30%?
class 0
